# Test system: T1, recombinant human ROR1 extracellular domain (human, UniProt Q01973 30-406)
# T1 construct: biotinylated for the filter lifts; also called huROR1-ECD; human ROR1-ECD
# T1 sequence (Q01973 30-406 limits assumed): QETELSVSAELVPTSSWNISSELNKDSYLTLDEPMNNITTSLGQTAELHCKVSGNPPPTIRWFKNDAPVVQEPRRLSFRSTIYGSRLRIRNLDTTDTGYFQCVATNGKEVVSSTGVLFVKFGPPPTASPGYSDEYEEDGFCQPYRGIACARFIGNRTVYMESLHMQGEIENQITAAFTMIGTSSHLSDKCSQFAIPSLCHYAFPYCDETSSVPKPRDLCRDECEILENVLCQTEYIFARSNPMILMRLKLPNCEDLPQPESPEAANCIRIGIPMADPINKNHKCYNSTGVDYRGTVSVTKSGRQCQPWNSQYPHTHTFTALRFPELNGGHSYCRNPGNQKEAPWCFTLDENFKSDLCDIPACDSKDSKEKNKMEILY
# Experiment notes: ELISA with prolonged wash, soluble Fab on coated huROR1-ECD
pKd: −log10 of the molar value.
Readout kind: pKd

INSERT INTO measurements (binder, reported_value) VALUES
  ('Ab1 Fab variant H1 T32A + H2 F58I, G66E, N71H (Fab, V domains shown, Fab) VH: QVQLQESGPGLVKPSQTLSLTCTVSGYAFAAYNIHWVRQAPGQGLEWMGSIDPYDEGSSYHQKFKDRLTISKDTSKNQVVLTMTNMDPVDTATYYCARGWYYFDYWGHGTLVTVSS VL: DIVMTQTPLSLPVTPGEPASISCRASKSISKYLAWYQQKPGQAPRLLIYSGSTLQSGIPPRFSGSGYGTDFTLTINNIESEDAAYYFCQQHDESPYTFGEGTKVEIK', 8.47);
